assay: Antiandrogen activity against androgen receptor in androgen-dependent mouse SC3 cells assessed as inhibition of testosterone-induced cell proliferation by WST1 assay
Measured Parameter: IC50 (nM)

1 = CCC(CC)(c1ccc(OCC(O)C(C)(C)Cc2ccccc2)c(C)c1)c1ccc(OC[C@@H](O)CO)c(C)c1 (some centres undefined)
2 = CCC(CC)(c1ccc(OCC(=O)C(C)(C)C)c(C)c1)c1ccc(OC[C@H](O)CO)c(C)c1
Looking at 1 and 2 , which one comes out lower in IC50 terms? Could you answer with the label of the item you picked? 2
(2: 15 nM, 1: 1700 nM)

I = CCC(CC)(c1ccc(OCC(=O)C(C)(C)C)c(C)c1)c1ccc(OC[C@@H](O)CO)c(C)c1
II = CCC(CC)(c1ccc(OCC(=O)C(C)(C)CCCc2ccccc2)c(C)c1)c1ccc(OC[C@@H](O)CO)c(C)c1
Looking at I and II , which one comes out lower in IC50 terms? Could you answer with the label of the item you picked? I

====

experiment: Vitamin-D activity at VDR receptor in human HL60 cells assessed as induction of cell differentiation by NBT reduction assay
pEC50: −log10 of the molar value.
Measured Parameter: pEC50

I = CCC(CC)(c1ccc(OCC(O)C(C)(C)Cc2ccccc2)c(C)c1)c1ccc(OC[C@@H](O)CO)c(C)c1 (some centres not stated)
II = CCC(CC)(c1ccc(OCC(O)C(C)(C)CCCc2ccccc2)c(C)c1)c1ccc(OC[C@@H](O)CO)c(C)c1 (some centres not stated)
III = CCC(CC)(c1ccc(OCC(O)C23CC4CC(CC(C4)C2)C3)c(C)c1)c1ccc(OC[C@@H](O)CO)c(C)c1 (some centres not stated)
# rank by pEC50, ascending (min first) Form entry: labels listed in requested order. III, I, II
(III: 4.66, I: 4.96, II: 5.44)

A = CCC(CC)(c1ccc(OCC(O)C(C)(C)CCc2ccccc2)c(C)c1)c1ccc(OC[C@@H](O)CO)c(C)c1 (some centres not stated)
B = CCC(CC)(c1ccc(OCC(=O)C(C)(C)Cc2ccccc2)c(C)c1)c1ccc(OC[C@@H](O)CO)c(C)c1
Looking at A and B , which one comes out lower in pEC50 terms? Could you answer with the label of the item you picked? B
(B: 4.68, A: 5.15)

====

pEC50 values for the compounds below.
test: Vitamin-D activity at VDR receptor in human HL60 cells assessed as induction of cell differentiation by NBT reduction assay
pEC50: −log10 of the molar value.

Please review the following examples before continuing.
[
  {
    "Compound": "CCC(CC)(c1ccc(OCC(=O)C(C)(C)CCc2ccccc2)c(C)c1)c1ccc(OC[C@@H](O)CO)c(C)c1",
    "pEC50": 4.64
  },
  {
    "Compound": "CCC(CC)(c1ccc(OCC(O)C(C)(C)Cc2ccc3ccccc3c2)c(C)c1)c1ccc(OC[C@@H](O)CO)c(C)c1 (stereo partly drawn)",
    "pEC50": "< 4.52"
  }
]

Give reported pEC50 value for CCC(CC)(c1ccc(OCC(=O)C(C)(C)Cc2ccc3ccccc3c2)c(C)c1)c1ccc(OC[C@@H](O)CO)c(C)c1 < 4.52

Give reported pEC50 value for CCC(CC)(c1ccc(OCC(=O)C(C)(C)CCCCc2ccccc2)c(C)c1)c1ccc(OC[C@@H](O)CO)c(C)c1 < 4.52

====

assay: Antiandrogen activity against androgen receptor in androgen-dependent mouse SC3 cells assessed as inhibition of testosterone-induced cell proliferation by WST1 assay
Measured Parameter: IC50 (nM)

Please review the following examples before continuing.
[
  {
    "Molecule": "CCC(CC)(c1ccc(OC[C@@H](O)CO)c(C)c1)c1ccc(OC[C@@H](O)C(C)(C)C)c(C)c1",
    "IC50, nM": 13
  },
  {
    "Molecule": "CCC(CC)(c1ccc(OCC(O)C(C)(C)CCCc2ccccc2)c(C)c1)c1ccc(OC[C@@H](O)CO)c(C)c1 (some centres not stated)",
    "IC50, nM": 130
  },
  {
    "Molecule": "CCC(CC)(c1ccc(OCC(=O)C(C)(C)CCc2ccccc2)c(C)c1)c1ccc(OC[C@@H](O)CO)c(C)c1",
    "IC50, nM": 1100
  },
  {
    "Molecule": "CCC(CC)(c1ccc(OCC(O)C(C)(C)CCc2ccccc2)c(C)c1)c1ccc(OC[C@@H](O)CO)c(C)c1 (some centres not stated)",
    "IC50, nM": 880
  }
]

1 = CCC(CC)(c1ccc(OC[C@H](O)CO)c(C)c1)c1ccc(OC[C@H](O)C(C)(C)C)c(C)c1
2 = CCC(CC)(c1ccc(OC[C@@H](O)CO)c(C)c1)c1ccc(OC[C@H](O)C(C)(C)C)c(C)c1
3 = CCC(CC)(c1ccc(OC[C@H](O)CO)c(C)c1)c1ccc(OC[C@@H](O)C(C)(C)C)c(C)c1
Ordering criterion: IC50; begin with the maximum. Form entry: labels listed in requested order. 3, 1, 2
